Cited source: ChEMBL document CHEMBL1153486

# assay_summary: Stability in rat plasma after 3 hrs
# Assay type: ADME, cell-free
# assay_context: read-out: Stability
measured_parameter: remaining at 3 h (%)
# output: bare number, implied unit %

Known results for molecules:
CC(C)(C)OC(=O)NCC(=O)N1C[C@H](NC(=O)c2ccccc2)C[C@H]1C(=O)O : 100
CCNC(=O)[C@@H]1C[C@@H](NC(=O)c2ccccc2)CN1C(=O)CN : 100
CNC(=O)[C@@H]1C[C@@H](NC(=O)c2ccccc2)CN1C(=O)CN : 87
CNCC(=O)N1C[C@H](NC(=O)c2ccccc2)C[C@H]1C(=O)O : 100

Qu. Suppose we examine the molecule CN(C)CC(=O)N1C[C@H](NC(=O)c2ccccc2)C[C@H]1C(=O)O ; what remaining at 3 h value has been reported?
Ans. 100
